Collected remaining binding at 0.1 µM values appear next to each entry.
assayedSystem: wild-type LRRK2 (Homo sapiens, UniProt Q5S007)
Construct: DNA tag for qPCR detection (not a peptide; the protein part that carries it is not described); made in house; host or cells: HEK 293 cells (the same paragraph also describes T7 phage grown in E. coli BL21)
Sequence (Q5S007 970-2527): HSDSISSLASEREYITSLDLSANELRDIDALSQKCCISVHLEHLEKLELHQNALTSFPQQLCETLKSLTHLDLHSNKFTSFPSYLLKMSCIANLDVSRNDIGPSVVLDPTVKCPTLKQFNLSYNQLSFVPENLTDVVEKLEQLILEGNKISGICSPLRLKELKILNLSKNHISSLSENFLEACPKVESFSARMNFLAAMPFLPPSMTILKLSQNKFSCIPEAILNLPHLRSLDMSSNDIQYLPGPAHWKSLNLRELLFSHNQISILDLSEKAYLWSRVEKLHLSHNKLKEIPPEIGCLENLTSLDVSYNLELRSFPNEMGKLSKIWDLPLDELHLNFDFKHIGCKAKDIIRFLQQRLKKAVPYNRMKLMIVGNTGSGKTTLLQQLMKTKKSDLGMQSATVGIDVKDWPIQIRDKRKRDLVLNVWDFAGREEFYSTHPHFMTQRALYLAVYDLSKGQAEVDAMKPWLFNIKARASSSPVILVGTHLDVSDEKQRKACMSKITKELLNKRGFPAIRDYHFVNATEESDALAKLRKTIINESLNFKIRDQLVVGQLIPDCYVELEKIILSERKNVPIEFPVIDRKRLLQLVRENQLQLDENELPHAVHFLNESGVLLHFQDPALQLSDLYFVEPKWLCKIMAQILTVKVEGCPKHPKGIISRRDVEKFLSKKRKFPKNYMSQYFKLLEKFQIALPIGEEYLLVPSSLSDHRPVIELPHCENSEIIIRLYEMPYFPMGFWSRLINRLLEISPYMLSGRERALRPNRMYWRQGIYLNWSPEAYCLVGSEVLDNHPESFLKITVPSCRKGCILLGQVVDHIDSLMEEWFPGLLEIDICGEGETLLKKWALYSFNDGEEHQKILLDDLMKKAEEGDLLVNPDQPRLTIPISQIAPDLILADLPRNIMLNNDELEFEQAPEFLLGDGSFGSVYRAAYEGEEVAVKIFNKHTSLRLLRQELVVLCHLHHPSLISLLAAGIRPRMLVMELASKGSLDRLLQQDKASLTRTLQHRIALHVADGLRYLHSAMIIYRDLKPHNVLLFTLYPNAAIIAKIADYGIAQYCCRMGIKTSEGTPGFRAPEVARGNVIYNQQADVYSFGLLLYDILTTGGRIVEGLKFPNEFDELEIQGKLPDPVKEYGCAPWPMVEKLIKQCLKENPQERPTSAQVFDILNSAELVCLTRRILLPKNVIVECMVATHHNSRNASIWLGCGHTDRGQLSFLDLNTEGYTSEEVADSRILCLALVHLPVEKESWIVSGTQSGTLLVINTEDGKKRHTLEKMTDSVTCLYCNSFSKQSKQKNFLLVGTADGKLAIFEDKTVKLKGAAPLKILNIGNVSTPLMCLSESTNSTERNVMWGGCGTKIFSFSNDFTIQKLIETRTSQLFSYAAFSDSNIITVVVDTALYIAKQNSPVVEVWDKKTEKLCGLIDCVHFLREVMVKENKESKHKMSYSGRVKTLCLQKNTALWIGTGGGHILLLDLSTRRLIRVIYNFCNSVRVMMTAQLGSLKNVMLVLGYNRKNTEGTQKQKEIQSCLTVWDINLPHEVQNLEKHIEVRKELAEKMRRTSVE
assayDetails: Inhibitory activity against LRRK2: competition binding to ligand-affinity beads, DNA-tagged kinase quantitated by qPCR
testSettings: 100 nM compound; % of ctrl; read-out: Remaining kinase activity(%) at 100 nM LRRK2(WT)

Worked cases, answers included:
// `COc1cc(C(=O)N2CCOCC2)ccc1Nc1ncc(Cl)c(-c2cnn(C(C)C)c2)n1` : remaining binding at 0.1 µM value = < 10%

Form field remaining binding at 0.1 µM, entry `COc1cc(C(=O)N2CCOCC2)ccc1Nc1ncc(Cl)c(-c2cnn(CC#N)c2)n1` : < 50%

Given item `COc1cc(C(=O)N2CCOCC2)ccc1Nc1ncc(Cl)c(-c2cnn(S(C)(=O)=O)c2)n1` , the value recorded as its remaining binding at 0.1 µM is < 30%

The measured remaining binding at 0.1 µM associated with `COc1cc(C(=O)N2CCN(C(C)C)CC2)ccc1Nc1ncc(C(F)(F)F)c(-c2cnn(C)c2)n1` reads < 30%

The measured remaining binding at 0.1 µM associated with `COc1cc(C(=O)N2CCOCC2)ccc1Nc1ncc(Cl)c(-c2cnn(C(C)(C)C)c2)n1` reads < 10%

So, `COc1cc(C(=O)N2C[C@H]3CC[C@@H](C2)O3)ccc1Nc1ncc(Cl)c(-c2cnn(C)c2)n1` ? Its remaining binding at 0.1 µM was < 30%

More entries:
Recorded result, COc1cc(C(=O)N2CCOCC2)ccc1Nc1ncc(Cl)c(-c2cccnc2)n1 [Comparative Compound 2, reference compound] , remaining binding at 0.1 µM: ≥ 50%

* * *

assayedSystem: wild-type LRRK2 (Homo sapiens)
Construct: DNA tag for qPCR detection (not a peptide; the protein part that carries it is not described); made in house; host or cells: HEK 293 cells (the same paragraph also describes T7 phage grown in E. coli BL21)
assayDetails: Inhibitory activity against LRRK2: competition binding to ligand-affinity beads, DNA-tagged kinase quantitated by qPCR
testSettings: 10 nM compound; % of ctrl; read-out: LRRK2(WT) Remaining kinase activity(%) at 10 nM
Listing of recorded remaining binding at 0.01 µM by entry.

Field remaining binding at 0.01 µM (entry `COc1cc(C(=O)N2CCN(C(C)C)CC2)ccc1Nc1ncc(Cl)c(-c2cnn(C(C)C)c2)n1` ) reads < 30%

Memo: `CCOC(=O)CCNC(=O)c1ccc(Nc2ncc(Cl)c(-c3cnn(C(C)C)c3)n2)c(OC)c1` , reported remaining binding at 0.01 µM: ≥ 50%

What the record says about `COc1cc(C(=O)N2CCC(S(C)(=O)=O)CC2)ccc1Nc1ncc(Cl)c(-c2cnn(C(C)C)c2)n1` : remaining binding at 0.01 µM is < 50%

Others:
Quick note, remaining binding at 0.01 µM for `COc1cc(C(=O)Nc2cccc(NS(C)(=O)=O)c2)ccc1Nc1ncc(Cl)c(-c2cnn(C(C)C)c2)n1` landed at ≥ 50%

Recorded result, `COc1cc(C(=O)N2CC(N3CCOCC3)C2)ccc1Nc1ncc(Cl)c(-c2cnn(C(C)C)c2)n1` , remaining binding at 0.01 µM: < 50%

Noted for COc1cc(C(=O)N2CC3CN(C)CC3C2)ccc1Nc1ncc(Cl)c(-c2cnn(C(C)C)c2)n1 (stereo not drawn) : its remaining binding at 0.01 µM reads < 30%

* * *

assayedSystem: wild-type LRRK2 (Homo sapiens, UniProt Q5S007)
Construct: DNA tag for qPCR detection (not a peptide; the protein part that carries it is not described); made in house; host or cells: HEK 293 cells (the same paragraph also describes T7 phage grown in E. coli BL21)
assayDetails: Inhibitory activity against LRRK2: competition binding to ligand-affinity beads, DNA-tagged kinase quantitated by qPCR
testSettings: 10 nM compound; % of ctrl; read-out: LRRK2(WT) Remaining kinase activity(%) at 10 nM
remaining binding at 0.01 µM values, listed per item

Recorded result, COc1cc(C(=O)Nc2ccc(Cl)cc2)ccc1Nc1ncc(Cl)c(-c2cnn(C(C)C)c2)n1 [Compound 151] , remaining binding at 0.01 µM: ≥ 50%

Entry CC(C)n1cc(-c2nc(Nc3ccc(C(=O)N4CCN(C)CC4)cc3OC(F)F)ncc2Cl)cn1 [Compound 108] — recorded remaining binding at 0.01 µM = ≥ 50%

More entries:
The reported remaining binding at 0.01 µM of the compound COc1cc(C(=O)N2C[C@H]3CC[C@@H](C2)O3)ccc1Nc1ncc(Cl)c(-c2cnn(C(C)C)c2)n1 [Compound 89] was ≥ 50%

What the record says about COc1cc(C(=O)Nc2ccc3c(c2)CCN3C(C)=O)ccc1Nc1ncc(Cl)c(-c2cnn(C(C)C)c2)n1 [Compound 212] : remaining binding at 0.01 µM is ≥ 50%

// remaining binding at 0.01 µM value for COc1cc(C(=S)N2CCOCC2)ccc1Nc1ncc(Cl)c(-c2cnn(C(C)C)c2)n1 [Compound 74] : < 50%

// COc1cc(C(=O)N2CCC3(CCOCC3)CC2)ccc1Nc1ncc(Cl)c(-c2cnn(C(C)C)c2)n1 [Compound 77] : remaining binding at 0.01 µM value = < 50%

GET /value?item= COc1cc(C(=O)N2CCC3(CC2)COC3)ccc1Nc1ncc(Cl)c(-c2cnn(C(C)C)c2)n1 [Compound 71] &field=remaining binding at 0.01 µM returns < 50%

Form: compound = COc1cc(C(=O)NC(C)c2ccccc2)ccc1Nc1ncc(Cl)c(-c2cnn(C(C)C)c2)n1 (stereo not drawn) [Compound 179] ; remaining binding at 0.01 µM = ≥ 50%

Value of remaining binding at 0.01 µM reported for the compound CCN(C)C(=O)c1ccc(Nc2ncc(Cl)c(-c3cnn(C(C)C)c3)n2)c(OC)c1 [Compound 202] is ≥ 50%

For COc1cc(C(=O)NC2CCOCC2)ccc1Nc1ncc(Cl)c(-c2cnn(C(C)C)c2)n1 [Compound 80] the compound record lists remaining binding at 0.01 µM as < 50%

Per the record, COc1cc(C(=O)N2CCOCC2)ccc1Nc1ncc(Cl)c(-c2cnn(C(C)C)c2)n1 [Compound 37] has remaining binding at 0.01 µM of < 50%

Per the record, COc1cc(C(=S)N2CCN(C)CC2)ccc1Nc1ncc(Cl)c(-c2cnn(C(C)C)c2)n1 [Compound 103] has remaining binding at 0.01 µM of < 30%

* * *

assayedSystem: wild-type LRRK2 (Homo sapiens, UniProt Q5S007)
Construct: DNA tag for qPCR detection (not a peptide; the protein part that carries it is not described); made in house; host or cells: HEK 293 cells (the same paragraph also describes T7 phage grown in E. coli BL21)
assayDetails: Inhibitory activity against LRRK2: competition binding to ligand-affinity beads, DNA-tagged kinase quantitated by qPCR
testSettings: 10 nM compound; % of ctrl; read-out: LRRK2(WT) Remaining kinase activity(%) at 10 nM
observationType: remaining binding at 0.01 µM

Recorded results for 5 molecules are shown here.
// remaining binding at 0.01 µM value for `COc1cc(C(=O)N2CCC(OC)CC2)ccc1Nc1ncc(Cl)c(-c2cnn(C(C)C)c2)n1` : < 50%

Entry COc1cc(C(=O)NC2CCC(O)CC2)ccc1Nc1ncc(Cl)c(-c2cnn(C(C)C)c2)n1 (stereo not drawn) ; remaining binding at 0.01 µM = ≥ 50%

`COc1ccc(CNC(=O)c2ccc(Nc3ncc(Cl)c(-c4cnn(C(C)C)c4)n3)c(OC)c2)cc1` has a reported remaining binding at 0.01 µM of ≥ 50%

The reported remaining binding at 0.01 µM of the molecule `COc1cc(C(=O)N2CCC(N3CCCCC3)CC2)ccc1Nc1ncc(Cl)c(-c2cnn(C(C)C)c2)n1` was < 30%

Entry `COc1cc(C(=O)N2CCN(C)CC2)c(F)cc1Nc1ncc(Cl)c(-c2cnn(C(C)C)c2)n1` — recorded remaining binding at 0.01 µM = ≥ 50%

Now let's try a different one.
Per the record, `COc1cc(C(=O)NCCO)ccc1Nc1ncc(Cl)c(-c2cnn(C(C)C)c2)n1` has remaining binding at 0.01 µM of ≥ 50%
